protocolDescription: Example 4: dose response of FKBP constructs 160-255, Ec50, Ec90 and fold change (raw and normalized to mCherry)
Format: cell-based
settings: FKBP constructs 160-255; not normalized; read-out: EC90
reportedMetric: EC90 (nM)
Dear colleague, please return just the value in nM, with no unit written.

Requested field: EC90. Item: FKBP-239 (protein, Description of sequence: Construct Name: FKBP-239; Mutation(s): Q72R Q84E A117W DRD E61Y) HCPIKSRKGDVLHMHYTGKLYDGTEFDSSLPRNQPFVFSLGTGEVIKGWDQGLLGMCEGEKRKLVIPSELGYGERGWPPKIPGGATLVFEVELLKIER
223

Requested field: EC90. Item: FKBP-235 (protein, Description of sequence: Construct Name: FKBP-235; Mutation(s): Q72R Q84E A117W V85R DRD D90T M54A) HCPIKSRKGDVLHAHYTGKLEDGTEFDSSLPRNQPFVFSLGTGERIKGWTQGLLGMCEGEKRKLVIPSELGYGERGWPPKIPGGATLVFEVELLKIER
9980

Requested field: EC90. Item: FKBP-197: FKBP13 DRD-AcGFP construct of Table 10 (protein, Description of sequence: Construct Name: FKBP-197; Mutation(s): Q72R Q84E A117W V85R DRD E130R) HCPIKSRKGDVLHMHYTGKLEDGTEFDSSLPRNQPFVFSLGTGERIKGWDQGLLGMCEGEKRKLVIPSELGYGERGWPPKIPGGATLVFRVELLKIER
1090
